B1: mRNA-splicing (parent)
chain: GAUCCAGAUCUAACUUGGGGUGGCUUUGUCUUCUUCUUUUGCCAAUUCCACUAAUUGUUUGGG

# Variants of: B1
# experimentNotes: exon inclusion enrichment score (log2 ratio to wild type); higher = more inclusion; FAS exon 6 minigene, HEK293
The recorded exon inclusion enrichment score of each item maps onto one of these classes: bottom bin (below -0.6), middle bin (-0.6 to below 0.2), top bin (0.2 or more)

Request: Category of GAUCCAGAUCUAACUUGGGGUGGCUUUAUCUUCUUCUUUUGCCAAUUCCACUAAUUGUUUGGG [G28A] :
Response: bottom bin

Request: Category of GAUCCAGAUCUAACUUGGGGUGGCUUUGUCUUCUUAUUUUGCCAAUUCCACUAAUUGUUUGGG [C36A] :
Response: bottom bin

Request: Category of GAUCCAGAUCUAACUUGGGGUGGCUUUGUCUUCUUCUUUUGCCAAUUCCACUAAUAGUUUGGG [U56A] :
Response: bottom bin

Request: Category of GAUCCAGAUCCAACUUGGGGUGGCUUUGUCUUCUUCUUUUGCCAAUUCCACUAAUUGUUUGGG [U11C] :
Response: top bin

Request: Category of GAUCCAGAUCUAACUUGGGGUGGCUUUGUCUUCUUCUUUUGCCAAUUCCAGUAAUUGUUUGGG [C51G] :
Response: middle bin

Request: Category of GAUCCAGAUCUAACUUAGGGUGGCUUUGUCUUCUUCUUUUGCCAAUUCCACUAAUUGUUUGGG [G17A] :
Response: bottom bin

Request: Category of GAUCCAGAUCUAGCUUGGGGUGGCUUUGUCUUCUUCUUUUGCCAAUUCCACUAAUUGUUUGGG [A13G] :
Response: middle bin

Request: Category of GAUCCAGAUCUAACUUGGGGUGGCUUUGUCUUCUUCUUUUGCCAAUUCCACGAAUUGUUUGGG [U52G] :
Response: top bin

Request: Category of GAUCCAGAUCUAACUUGGGGUGGCUUUGUCAUCUUCUUUUGCCAAUUCCACUAAUUGUUUGGG [U31A] :
Response: top bin

Request: Category of GAUCCAGAUCUAACUUGGGGUGGCUUUGUCUUCUUCUUUUGCCAAUUCCACUAAUUGUUUGUG [G62U] :
Response: middle bin

Request: Category of GAUCCAGAUCUAACUUGGGGCGGCUUUGUCUUCUUCUUUUGCCAAUUCCACUAAUUGUUUGGG [U21C] :
Response: top bin

Request: Category of GAUCCAGAUCUAACUUGGGGUGGCUUUGUCUUCUUCUUUUGCCAUUUCCACUAAUUGUUUGGG [A45U] :
Response: bottom bin

Request: Category of GAUCCAGAUCUAACUUGGGGUGGCUUUGUCUUCUUCUUUUGCCAAUUCCACUAAUUGUUUUGG [G61U] :
Response: middle bin

Request: Category of GAUCCAGAUCUAUCUUGGGGUGGCUUUGUCUUCUUCUUUUGCCAAUUCCACUAAUUGUUUGGG [A13U] :
Response: middle bin

Request: Category of GAUCCAGAUCUAACUUGGGGUGGCUUUGUCUUCUUCUUCUGCCAAUUCCACUAAUUGUUUGGG [U39C] :
Response: top bin

Request: Category of GAUCCAGAUCUAACUUGGGGUGGCUUUGUCUUCUUCUUUUGCCAAUUCCACUAACUGUUUGGG [U55C] :
Response: middle bin

Request: Category of GAUCCAGAUCUAACUUGGGGUGGCUUUGUCUUCUUCUUUUGCCAAUCCCACUAAUUGUUUGGG [U47C] :
Response: bottom bin

Request: Category of GAUCCAGAUCUAACUUGGGGUGGCUUUGUCUUCUUCUUUUGCCAAUUCCACUAAUUGUUUGGC [G63C] :
Response: bottom bin

Request: Category of GAUCCAGAUCUAACUUGGGGUGGCUUUGUCUUCUUCUUUUGCCAAUUCCACUAAUCGUUUGGG [U56C] :
Response: top bin

Request: Category of GAUCCAGAUCUAACUUGGGGUGGCAUUGUCUUCUUCUUUUGCCAAUUCCACUAAUUGUUUGGG [U25A] :
Response: top bin

Request: Category of GAUCCAGAUCUAACUUGGGGUGGCUUUGUCUUCUUCGUUUGCCAAUUCCACUAAUUGUUUGGG [U37G] :
Response: top bin

Request: Category of GAUCCAGAUCUAACUUGGGGUGGCUUUGUCUUCUUCUUUUGCGAAUUCCACUAAUUGUUUGGG [C43G] :
Response: middle bin

Request: Category of GAUCCAGAUCUAACUUGGGGUGGCUUUGUCUUCUUCUGUUGCCAAUUCCACUAAUUGUUUGGG [U38G] :
Response: top bin

Request: Category of GAUCCAGAUCUAACUUGAGGUGGCUUUGUCUUCUUCUUUUGCCAAUUCCACUAAUUGUUUGGG [G18A] :
Response: bottom bin

Request: Category of GAUCCAGAUCUAACUUGGGGUGGCUUUGUCUUCUUCCUUUGCCAAUUCCACUAAUUGUUUGGG [U37C] :
Response: top bin

Request: Category of GAUCCAGAUCUAACUUGGGGUGGCUUUGUCUUCUUCUUUUGCCAAUUCCACUAAUUGUUUCGG [G61C] :
Response: middle bin

Request: Category of GAUCCAGAUCUAACUUGGGGUGGCUUUGUCUUCUUCUUUUGCCAAUUCCACUAAUUGUUUGGU [G63U] :
Response: bottom bin

Request: Category of GAUCCAGAUCUAACUUGGGGUGGCUUUGUCUUCUUCUUUUGCCAAUUCCACUAAUUGUUCGGG [U60C] :
Response: middle bin

Request: Category of CAUCCAGAUCUAACUUGGGGUGGCUUUGUCUUCUUCUUUUGCCAAUUCCACUAAUUGUUUGGG [G1C] :
Response: bottom bin

Request: Category of GAUCCAGAUCUAACUUGGGGUGGCUUUGUCUUCUUCAUUUGCCAAUUCCACUAAUUGUUUGGG [U37A] :
Response: top bin

Request: Category of GAUCCAGAUCUAACUUGGGAUGGCUUUGUCUUCUUCUUUUGCCAAUUCCACUAAUUGUUUGGG [G20A] :
Response: top bin

Request: Category of GAUCCAGAUCUAACUUGGGGUCGCUUUGUCUUCUUCUUUUGCCAAUUCCACUAAUUGUUUGGG [G22C] :
Response: middle bin

Request: Category of GAUCCAGAUCUAACUUGGGGUGGCUUUGUCUUCUUCUUUUGCCAAUUCCACUGAUUGUUUGGG [A53G] :
Response: top bin

Request: Category of GAUCCAGAUCUAACUUGGGGUGGCUUUGUCUUCUUCUUUUGCCACUUCCACUAAUUGUUUGGG [A45C] :
Response: bottom bin

Request: Category of GAUCCAGAUCUAACUUGGGGUGGCUUUGUCUUCUUCUUUUCCCAAUUCCACUAAUUGUUUGGG [G41C] :
Response: bottom bin

Request: Category of GAUCCAGAUCUAACUUGGGGUGGCUUUGUCUACUUCUUUUGCCAAUUCCACUAAUUGUUUGGG [U32A] :
Response: middle bin

Request: Category of GAUCCAGAUCUAACUUGGGGUGGCUUUGUCUUCUUCUUUUGCCAAUUCCACUACUUGUUUGGG [A54C] :
Response: middle bin

Request: Category of GAUCCAAAUCUAACUUGGGGUGGCUUUGUCUUCUUCUUUUGCCAAUUCCACUAAUUGUUUGGG [G7A] :
Response: bottom bin

Request: Category of GAUCCAGAUCGAACUUGGGGUGGCUUUGUCUUCUUCUUUUGCCAAUUCCACUAAUUGUUUGGG [U11G] :
Response: top bin

Request: Category of GAUCCAGAUCUAACUUGGGGUGGCUUUGUCUUCUUCUUUUGCAAAUUCCACUAAUUGUUUGGG [C43A] :
Response: middle bin

Request: Category of GAUCCAGAUCUAACUUGUGGUGGCUUUGUCUUCUUCUUUUGCCAAUUCCACUAAUUGUUUGGG [G18U] :
Response: top bin

Request: Category of GAUCCAGAUCUAACUUGGGGUGGCUCUGUCUUCUUCUUUUGCCAAUUCCACUAAUUGUUUGGG [U26C] :
Response: middle bin

Request: Category of GAUCCAGAUCUAACUUGGGGUGGCUUUGUCUUCUUCUAUUGCCAAUUCCACUAAUUGUUUGGG [U38A] :
Response: middle bin

Request: Category of GAUCCAGAUCUAACUUGGGUUGGCUUUGUCUUCUUCUUUUGCCAAUUCCACUAAUUGUUUGGG [G20U] :
Response: bottom bin

Request: Category of GAUCCAGAUCUAACUUGGGGUGGCUUUGUCCUCUUCUUUUGCCAAUUCCACUAAUUGUUUGGG [U31C] :
Response: middle bin

Request: Category of GAUCCAGAUCUAACUUGGGGUGGCUUUGUCUUCUUCUUUUGCCAAUUCCACUAAUUAUUUGGG [G57A] :
Response: middle bin

Request: Category of GAUCCAGAUCUAACUUGGGGUGGCUUUGUCUUCUUCUUUUGACAAUUCCACUAAUUGUUUGGG [C42A] :
Response: middle bin

Request: Category of GAUCCAGAUCUAACUUGGGGUGGCUUUGUCUUUUUCUUUUGCCAAUUCCACUAAUUGUUUGGG [C33U] :
Response: bottom bin

Measured values drawn from the RNAGym collection of RNA variant scans (doi:10.1038/ncomms11558) for this set.
